Target: JAK2 kinase domain (Homo sapiens, UniProt O60674)
Sequence (O60674 849-1124 limits assumed): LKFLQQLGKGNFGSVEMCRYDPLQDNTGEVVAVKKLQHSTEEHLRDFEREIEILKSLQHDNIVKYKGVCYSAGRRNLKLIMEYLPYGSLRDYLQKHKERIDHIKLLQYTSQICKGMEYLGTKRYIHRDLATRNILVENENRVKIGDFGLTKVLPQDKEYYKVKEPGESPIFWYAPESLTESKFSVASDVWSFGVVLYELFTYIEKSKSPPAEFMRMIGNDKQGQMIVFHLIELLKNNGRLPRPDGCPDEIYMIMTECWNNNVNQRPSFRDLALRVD
pIC50: −log10 of the molar value.
Measured Metric: pIC50

Guide cases for pIC50, answers given:
[[record]]
compound = "Cc1ccc(Cl)cc1-c1[nH]c(-c2ccnc(N)n2)c(C#Cc2cccc(N)c2)c1C(N)=O [compound 72]"
measured_metric = "pIC50"
numeric_readout = 8.70

[[record]]
compound = "COc1ccc(N)cc1C#Cc1cnc(N)nc1-c1cc(C(N)=O)c(-c2cc(Cl)ccc2C)[nH]1 [compound 9]"
measured_metric = "pIC50"
numeric_readout = 9.00


a. Cc1ccc(Cl)cc1-c1[nH]c(-c2ccnc(N)n2)c(C#Cc2cccc(CN3CCN(C)CC3)c2)c1C(N)=O [compound 81]
b. Cc1ccc(Cl)cc1-c1[nH]c(-c2nc(N)ncc2C#Cc2cccc(NC3CCN(C)CC3)c2)cc1C(N)=O [compound 12]
c. Cc1ccc(Cl)cc1-c1[nH]c(-c2ccnc(N)n2)c(C#Cc2cccc(N3CCN(C)CC3)c2)c1C(N)=O [compound 90]
Falling order of pIC50, please. Give the labels in the order requested.
b, c, a
(b: 9.00, c: 8.52, a: 8.22)

I. Cc1ccc(Cl)cc1-c1[nH]c(-c2nc(N)ncc2C#Cc2ccc(OC3CCN(C)CC3)cc2)cc1C(N)=O [compound 48]
II. CCc1ccc(Cl)cc1-c1[nH]c(-c2ccnc(N)n2)c(C#Cc2cccc(OC3CCN(C)CC3)c2)c1C(N)=O [compound 102]
Hello, I am sorting some records. Could you say if I or II has the smaller pIC50 value? // return label of chosen record
I
(I: 8.22, II: 9.00)
